Origin of values: patent US20230104936A1

Would you kindly list AC50 for each of these molecules?
Test system: TFEB
test.method.notes: TFEB nuclear translocation assay, HeLa wt cells
Type: cell-based
measurement.context: Homo sapiens, HeLa, 2 h, 2 hrs compound treatment, Table 1 does not say HeLa wt or TRPML1 KO

C[C@@H]1CN(CC2CCN(c3c(C#N)cccc3NS(=O)(=O)c3ccc(S(=O)(=O)N(C)C)cc3)CC2)C[C@H](C)O1 [Compound A-878]; ≤ 2000 nM
CP(C)(=O)c1ccc(S(=O)(=O)Nc2ccccc2N2CCN(c3ccc(F)cc3F)CC2)cc1 [Compound A-165]; 2010 to 8000 nM
COCCS(=O)(=O)c1ccc(S(=O)(=O)Nc2ccccc2N2CCC(c3ccc(Cl)cc3F)CC2)cc1 [Compound A-701]; ≤ 2000 nM

Continue with the next molecule.
Reported AC50 of COCCOCCOCC1(C)CCN(c2ccccc2NS(=O)(=O)c2ccc(S(=O)(=O)N(C)C)cc2)CC1 [Compound A-519] : ≤ 2000 nM

* * *

Would you kindly list AC50 for each of these compounds?
System: TFEB
test.method.notes: TFEB nuclear translocation assay, HeLa wt cells
Format: cell-based
measurement.context: Homo sapiens, HeLa, 2 h, 2 hrs compound treatment, Table 1 does not say HeLa wt or TRPML1 KO

Cc1ccc(CS(=O)(=O)Nc2ccccc2N2CCC3(CC2)COC(C)(C)C3)cc1C; ≤ 2 µM
COCC1(C)CCN(c2ccccc2NS(=O)(=O)c2ccc(S(C)(=O)=O)c(F)c2)CC1; ≥ 10 µM
O=S(=O)(Nc1cccnc1N1CCN(c2ncc(Cl)cc2F)CC1)c1ccc(OC(F)(F)F)cc1; ≥ 10 µM
COCC1(C)CCN(c2ccccc2NS(=O)(=O)Cc2ccccc2C)CC1; 8.01 to 9.99 µM

Items follow; give AC50 for each.
1. COc1ccc(S(=O)(=O)Nc2ccccc2Oc2ccc(F)cc2F)cc1
2. CC(C)(C)C(=O)N1CCN(c2ccccc2NS(=O)(=O)Cc2cccc(Br)c2)CC1
3. CN(C)S(=O)(=O)c1ccc(S(=O)(=O)Nc2ccccc2N2CCC(O)(c3cc(Br)ncc3F)CC2)cc1
4. COc1ccc(S(=O)(=O)Nc2ccccc2-c2ccc(F)cc2F)cc1

≥ 10 µM
2.01 to 8 µM
≤ 2 µM
2.01 to 8 µM

* * *

System: TFEB
test.method.notes: TFEB nuclear translocation assay, HeLa wt cells
Assay type: cell-based
measurement.context: Homo sapiens, HeLa, 2 h, 2 hrs compound treatment, Table 1 does not say HeLa wt or TRPML1 KO
observed.property: AC50

O=S(=O)(Nc1cc(Cl)ccc1N1CCCC12CCCOC2)c1ccc2c(c1)CCC2 (stereo not drawn); 2.01 to 8 µM
CC(N1CCN(c2ccccc2NS(=O)(=O)c2ccc(S(C)(=O)=O)cc2)CC1)C(F)(F)F (stereo not drawn); ≤ 2 µM
CN(C)S(=O)(=O)c1ccc(NC(=O)c2ccccc2N2CCN(c3ccc(Cl)cc3F)CC2)cc1; ≤ 2 µM
COCC1(C)CCN(c2ccccc2NS(=O)(=O)c2ccc(C(=O)C(C)C)cc2)CC1; 8.01 to 9.99 µM
COCC1(C)CCN(c2ccccc2NS(=O)(=O)Cc2cccc(C#N)c2)CC1; 2.01 to 8 µM
O=S(=O)(Nc1ccccc1N1CCC(c2ccc(F)cc2F)CC1)c1ccc(C(F)F)cn1; 2.01 to 8 µM
COCC1(C)CCN(c2ccccc2NS(=O)(=O)Cc2ccccc2C#N)CC1; 2.01 to 8 µM
COCC1(C)CCN(c2ccccc2NS(=O)(=O)c2ccc3c(c2)COC3)CC1; 8.01 to 9.99 µM

Items follow; give AC50 for each.
1. COC(F)(F)C(F)(F)c1ccc(S(=O)(=O)Nc2ccccc2N2CCN(C(=O)C(C)(C)C)CC2)cc1
2. CC(c1cccc(F)c1N1CCOCC1)S(=O)(=O)c1ccc2c(c1)CCS2(=O)=O (single isomer, unassigned) [Compound A-966]
3. CC(c1cncc(F)c1N1CCC(CN2CCC(F)(F)CC2)CC1)S(=O)(=O)c1ccc(S(=O)(=O)N(C)C)cc1 (stereo not drawn)
4. CC(c1cccc(F)c1N1[C@@H]2CCC[C@H]1CC2)S(=O)(=O)c1ccc(S(=N)(=O)N(C)C)cc1 (single isomer, unassigned)

["8.01 to 9.99 µM", "≥ 10 µM", "≤ 2 µM", "≥ 10 µM"]

* * *

System: TFEB
test.method.notes: TFEB nuclear translocation assay, HeLa wt cells
Type: cell-based
measurement.context: Homo sapiens, HeLa, 2 h, 2 hrs compound treatment, Table 1 does not say HeLa wt or TRPML1 KO
Would you kindly list AC50 for each of these compounds?

COc1cccc(S(=O)(=O)Nc2ccccc2N2CCN(c3ccc(Cl)cc3F)CC2)c1 [Compound A-4]; ≤ 2000 nM
COCC(C)N1CCN(c2ccccc2NS(=O)(=O)c2ccc(S(=O)(=O)N(C)C)cc2)CC1 (centres unmarked) [Compound A-418]; 2010 to 8000 nM

Items follow; give AC50 for each.
1. COCC1(C)CCN(c2ccccc2NS(=O)(=O)c2ccc(OC)cc2)CC1 [Compound A-538]
2. CC(C)(C)C(=O)N1CCN(c2ccccc2NS(=O)(=O)c2ccc(CC(F)(F)F)cc2)CC1 [Compound A-567]
3. C[C@@H]1CN(CC2CCN(c3c(F)cccc3NS(=O)(=O)c3ccc(S(=N)(=O)N(C)C)cc3)CC2)C[C@H](C)O1 (some centres unmarked) [Compound A-769]
4. C#Cc1ccc(NS(=O)(=O)c2ccc(S(=O)(=O)N(C)C)cc2)c(N2CCCCC2)c1 [Compound A-812]
5. COCC1(C)CCN(c2ccccc2NS(=O)(=O)c2ccc(F)c(C)c2)CC1 [Compound A-616]
6. CN(C)S(=O)(=O)c1ccc(S(=O)(=O)Cc2ccccc2N2CCN(Cc3ccccc3)CC2)cc1 [Compound A-406]

1. ≤ 2000 nM
2. ≥ 10000 nM
3. ≤ 2000 nM
4. ≤ 2000 nM
5. 2010 to 8000 nM
6. 2010 to 8000 nM

* * *

Test system: TFEB
test.method.notes: TFEB nuclear translocation assay, HeLa wt cells
Type: cell-based
measurement.context: Homo sapiens, HeLa, 2 h, 2 hrs compound treatment, Table 1 does not say HeLa wt or TRPML1 KO
observed.property: AC50

In the examples that follow, each entry is paired with its recorded AC50.
CN(C)S(=O)(=O)c1ccc(S(=O)(=O)n2nc(C3CCN(c4c(F)cccc4F)CC3)c3c2CCNC3)cc1 [Compound A-533]; 2.01 to 8 µM
CN(C)S(=O)(=O)c1ccc(S(=O)(=O)Nc2ccccc2N2CCN(CCF)CC2)cc1 [Compound A-559]; 2.01 to 8 µM
Cc1ccc(S(=O)(=O)Nc2ccccc2N2CCC3(CC2)CN(C)c2cc(F)ccc23)cc1 [Compound A-245]; ≤ 2 µM

Items follow; give AC50 for each.
1. CN(C)S(=O)(=O)c1ccc(S(=O)(=O)Nc2ccccc2N2CCC(c3cccc(-c4nn[nH]n4)c3)CC2)cc1 [Compound A-272]
2. CC(C)(C)C(=O)N1CCN(c2ccccc2NS(=O)(=O)Cc2cccc3cccnc23)CC1 [Compound A-565]
3. CC(c1cc(Cl)cnc1N1CCC(CN2CCC(F)(F)CC2)CC1)S(=O)(=O)c1ccc(S(=O)(=O)N(C)C)cc1 (single isomer, unassigned) [Compound A-978]
4. CN(C)S(=O)(=O)c1ccc(S(=O)(=O)Nc2ccccc2N2CCN(CC3CCOC3)CC2)cc1 (centres unmarked) [Compound A-509]

["≥ 10 µM", "8.01 to 9.99 µM", "≤ 2 µM", "2.01 to 8 µM"]

Items follow; give AC50 for each.
1. CC(C)C(=O)c1ccc(S(=O)(=O)Nc2ccccc2N2CCC3(CC2)COC(C)(C)C3)cc1 [Compound A-657]
2. COc1ccc(N2CCOCC2)c(NS(=O)(=O)Cc2ccc3c(c2)COCC3)c1 [Compound A-609]
3. COCC1(C)CCN(c2ccccc2NC(c2ccc(S(=O)(=O)N(C)C)cc2)C(F)(F)F)CC1 (centres unmarked) [Compound A-684]
4. C[C@@H]1CN(CC2CCN(c3ccccc3NS(=O)(=O)c3cnn(CC4CC4)c3)CC2)C[C@H](C)O1 [Compound A-772]
5. CN(C)S(=O)(=O)c1ccc(S(=O)(=O)Nc2ccccc2N2CCC(C)(COC(F)(F)F)CC2)cc1 [Compound A-784]
6. CCC(C1CCN(c2c(F)cccc2NS(=O)(=O)c2ccc(S(=N)(=O)N(C)C)cc2)CC1)N1CCOCC1 (centres unmarked) [Compound A-857]

["8.01 to 9.99 µM", "8.01 to 9.99 µM", "2.01 to 8 µM", "8.01 to 9.99 µM", "≤ 2 µM", "≤ 2 µM"]

Items follow; give AC50 for each.
1. C[C@@H]1CN(c2ccccc2NS(=O)(=O)c2ccc(S(=O)(=O)N(C)C)cc2)C[C@H](C)N1c1ccc(Cl)cn1 [Compound A-121]
2. Cc1cc(NS(=O)(=O)c2ccc3c(c2)CCC3)c(Cl)c(N2CCOCC2)c1 [Compound A-823]
3. CC1(C)CC2(CCN(c3ccccc3NS(=O)(=O)c3ccc4c(c3)OC3(CCC3)O4)CC2)CO1 [Compound A-723]
4. CN(C)S(=O)(=O)c1ccc(S(=O)(=O)Nc2ccccc2N2CCC(c3cccc(C(=O)O)c3)CC2)cc1 [Compound A-266]

≤ 2 µM
≥ 10 µM
≤ 2 µM
≥ 10 µM

Items follow; give AC50 for each.
1. CN(C)S(=O)(=O)c1ccc(S(=O)(=O)Nc2ccccc2N2CCN(C(=O)C34CCCCC3C4)CC2)cc1 (centres unmarked) [Compound A-487]
2. CS(=O)(=O)c1ccc(S(=O)(=O)Nc2cccc(Cl)c2N2CCOCC2)cc1 [Compound A-275]
3. CS(=O)(=O)c1ccc(S(=O)(=O)Nc2ccccc2N2CCC3(CC2)CN(CC2CCOC2)c2cc(F)ccc23)cc1 (centres unmarked) [Compound A-423]
4. CCC(C)(C)CC(=O)N1CCN(c2ccccc2NS(=O)(=O)c2ccc(S(=O)(=O)N(C)C)cc2)CC1 [Compound A-426]
5. COCC1(C)CCN(c2ccccc2NS(=O)(=O)c2ccc3c(c2)CCC3)CC1 [Compound A-608]

1: ≤ 2 µM; 2: ≥ 10 µM; 3: ≤ 2 µM; 4: ≤ 2 µM; 5: ≤ 2 µM
